Assignment: determine reported Ki for the given binders.
SYSTEM_TESTED: T1, human MC4 receptor (human, UniProt P32245 1-332)
T1 construct: whole, on cells; Assayed as membranes of BHK cells stably expressing the receptor; also called melanocortin receptor subtype 4; melanocortin receptor 4
METHOD_SUMMARY: 125I-NDP-α-MSH displacement, BHK-human MC4 membranes (Assay V);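 further: Filter-retained radioactivity read by gamma counting, with affinity obtained through non-linear regression fitting of the binding curves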
Positions of bridges follow the written chain, without caps; N, C: chain ends. Non-standard residues stand in square brackets, D forms with d. Groups on a side chain read outwards from the residue. Primed or numbered codes have the meaning given here. *: point of attachment. X6 = (2-(2-(17-carboxyheptadecanoylamino)ethoxy)ethoxy)acetyl, O=C(O)CCCCCCCCCCCCCCCCC(=O)NCCOCCOCC(=O)*; biscarboxymethyl = Lys(biscarboxymethyl) = Nepsilon-bis(carboxymethyl)-L-lysine; bis(carboxymethyl) = Lys(biscarboxymethyl) = N6-bis(carboxymethyl)-L-lysine; Palmitoyl(16-(5-tetrazolyl)) = O=C(CCCCCCCCCCCCCCCc1nnn[nH]1)*; biscarboxymethyl(3) = Nepsilon-bis(carboxymethyl) on Lys; C16 diacid = O=C(O)CCCCCCCCCCCCCCC(=O)*; Hyp = O=C(O)[C@@H]1C[C@@H](O)CN1; hCys = N[C@@H](CCS)C(=O)O; Orn = NCCC[C@H](N)C(=O)O; Dab = NCC[C@H](N)C(=O)O; AEEA = NCCOCCOCC(=O)O

> print(dat)
                                     binder  reported.value
1  Ac-EH[dF]RW[Dab][Hyp][Hyp]RDK(biscarboxymethyl(3))K([AEEA-Palmitoyl(16-(5-tetrazolyl))])-NH2 (lactam 1-6)          105 nM
2  Ac-[hCys]H[dF]RWCSPKEK(bis(carboxymethyl))K([AEEA-C16 diacid])-NH2 (disulfide 1-6)         3.43 nM

Value lookup for Ki; key = Ac-EH[dF]RW[Orn]PPDK(biscarboxymethyl)K(X6)-NH2 (lactam 1-6)
8.6 nM
